- Method Notes: clinical
- Design: species or system human
- Experimental Conditions: human, in vivo, iv, 100 mg
Peptide text beside a SMILES is read from it.
Value Kind: clearance (mL/min)
Unit mL/min implied. Number only.

Incoming: Fill blank: measured clearance of the molecule CC(=O)N[C@H](C(=O)N[C@H](CO)C(=O)N[C@H]1CCNC(=O)[C@H]([C@@H](C)O)NC(=O)[C@H](CCN)NC(=O)[C@H](CCN)NC(=O)[C@H](CC(C)C)NC(=O)[C@@H](Cc2ccccc2)NC(=O)[C@H](CCN)NC1=O)[C@@H](C)O [SPR741] (HELM PEPTIDE1{[ac].T.[dS].[Dab].[Dab].[dF].L.[Dab].[Dab].T}$PEPTIDE1,PEPTIDE1,4:R3-10:R2$$$V2.0) is ____.
Outgoing: 92.5

###

- Method Notes: clinical
- Set-up: species or system human
- Experimental Conditions: human, in vivo, iv, 400 mg
Peptide text beside a SMILES is read from it.
Value Kind: AUC(0-inf) (ng·h/mL)
Quick reminder: number only, in ng·h/mL, skip the unit.

Incoming: Any idea what AUC(0-inf) was measured for CC(=O)N[C@H](C(=O)N[C@H](CO)C(=O)N[C@H]1CCNC(=O)[C@H]([C@@H](C)O)NC(=O)[C@H](CCN)NC(=O)[C@H](CCN)NC(=O)[C@H](CC(C)C)NC(=O)[C@@H](Cc2ccccc2)NC(=O)[C@H](CCN)NC1=O)[C@@H](C)O [SPR741] (HELM PEPTIDE1{[ac].T.[dS].[Dab].[Dab].[dF].L.[Dab].[Dab].T}$PEPTIDE1,PEPTIDE1,4:R3-10:R2$$$V2.0) ?
Outgoing: 82200

###

- Method Notes: clinical
- Design: species or system human
- Experimental Conditions: human, in vivo, iv, 200 mg
Peptide text beside a SMILES is read from it.
Value Kind: AUC(0-inf) (ng·h/mL)
Give a bare numeral; the unit ng·h/mL is implied.

Incoming: Need AUC(0-inf) of CC(=O)N[C@H](C(=O)N[C@H](CO)C(=O)N[C@H]1CCNC(=O)[C@H]([C@@H](C)O)NC(=O)[C@H](CCN)NC(=O)[C@H](CCN)NC(=O)[C@H](CC(C)C)NC(=O)[C@@H](Cc2ccccc2)NC(=O)[C@H](CCN)NC1=O)[C@@H](C)O [SPR741] (HELM PEPTIDE1{[ac].T.[dS].[Dab].[Dab].[dF].L.[Dab].[Dab].T}$PEPTIDE1,PEPTIDE1,4:R3-10:R2$$$V2.0) , thanks.
Outgoing: 37300

###

- Method Notes: clinical
- Design: species or system human
- Experimental Conditions: human, in vivo, iv, 400 mg
Peptide text beside a SMILES is read from it.
Value Kind: Vd (L)
Quick note: give the figure in L, leave out the unit.

Incoming: Dear colleague, I am looking for the recorded Vd of the following compound: CC(=O)N[C@H](C(=O)N[C@H](CO)C(=O)N[C@H]1CCNC(=O)[C@H]([C@@H](C)O)NC(=O)[C@H](CCN)NC(=O)[C@H](CCN)NC(=O)[C@H](CC(C)C)NC(=O)[C@@H](Cc2ccccc2)NC(=O)[C@H](CCN)NC1=O)[C@@H](C)O [SPR741] (HELM PEPTIDE1{[ac].T.[dS].[Dab].[Dab].[dF].L.[Dab].[Dab].T}$PEPTIDE1,PEPTIDE1,4:R3-10:R2$$$V2.0)
Outgoing: 24.5
